# Study system: human Factor Xa (Homo sapiens)
# Sequence (P00742 235-488 limits assumed): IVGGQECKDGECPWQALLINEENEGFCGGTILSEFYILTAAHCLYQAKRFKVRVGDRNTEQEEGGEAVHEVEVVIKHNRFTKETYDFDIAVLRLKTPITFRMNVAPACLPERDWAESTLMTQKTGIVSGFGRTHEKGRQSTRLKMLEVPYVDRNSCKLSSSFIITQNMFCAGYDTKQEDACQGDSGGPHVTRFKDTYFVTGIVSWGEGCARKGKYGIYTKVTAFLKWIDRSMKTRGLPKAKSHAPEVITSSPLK
# Sequence (P00742 41-179 limits assumed): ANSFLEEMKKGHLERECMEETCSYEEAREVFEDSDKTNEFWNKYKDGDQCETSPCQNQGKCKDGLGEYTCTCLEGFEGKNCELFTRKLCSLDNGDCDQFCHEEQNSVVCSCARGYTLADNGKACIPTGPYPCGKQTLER
# Protocol notes: Factor Xa assay
# Format: biochemical
# Set-up: This complex converts factor X to Xa; purchased Hematologic Technologies
# Recorded conditions: 3.3 nM Xa, S-2222 0.5 mM; read-out: binding affinity to serine proteases: Xa (constant of inhibition Ki)
Measured attribute: Ki

Quickly give me recorded Ki for C[C@@H](NC(=O)[C@@H]1C[C@@H](Oc2cccc(C(=N)N)c2)CN1)c1ccccc1 [compound 26]
114 µM
